# System: rodent lifetime carcinogenesis bioassay, tumor incidence TD50
# measurement_notes: carcinogenic potency in animals, long-term in vivo studies, CPDB compilation (AID 1745844)
# test_parameters: mouse; strain Swiss albino; females; in drinking water; site: liver; lesion: hepatoma, benign; dosed 92 weeks; study length 92 weeks
quantity_kind: TD50 (mg/kg/day)
Please state the figure in mg/kg/day; there is no need to write the unit.

Note TD50 for the compound shown: "CN(N)C=O"
17.5

* * *

# Tested on: rodent lifetime carcinogenesis bioassay, tumor incidence TD50
# measurement_notes: carcinogenic potency in animals, long-term in vivo studies, CPDB compilation (AID 1745844)
# test_parameters: rat; strain Fischer 344; females; in feed; site: large intestine; lesion: carcinoma; dosed 27 weeks; study length 104 weeks
quantity_kind: TD50

Note TD50 for the compound shown: "COc1ccccc1[N+](=O)[O-]"
1300 mg/kg/day
